TESTED_SYSTEM: human αVβ6 integrin on cells (human, UniProt P06756 31-1048; P18564 22-788)
Sequence (P06756 31-1048, chain 1 of 2): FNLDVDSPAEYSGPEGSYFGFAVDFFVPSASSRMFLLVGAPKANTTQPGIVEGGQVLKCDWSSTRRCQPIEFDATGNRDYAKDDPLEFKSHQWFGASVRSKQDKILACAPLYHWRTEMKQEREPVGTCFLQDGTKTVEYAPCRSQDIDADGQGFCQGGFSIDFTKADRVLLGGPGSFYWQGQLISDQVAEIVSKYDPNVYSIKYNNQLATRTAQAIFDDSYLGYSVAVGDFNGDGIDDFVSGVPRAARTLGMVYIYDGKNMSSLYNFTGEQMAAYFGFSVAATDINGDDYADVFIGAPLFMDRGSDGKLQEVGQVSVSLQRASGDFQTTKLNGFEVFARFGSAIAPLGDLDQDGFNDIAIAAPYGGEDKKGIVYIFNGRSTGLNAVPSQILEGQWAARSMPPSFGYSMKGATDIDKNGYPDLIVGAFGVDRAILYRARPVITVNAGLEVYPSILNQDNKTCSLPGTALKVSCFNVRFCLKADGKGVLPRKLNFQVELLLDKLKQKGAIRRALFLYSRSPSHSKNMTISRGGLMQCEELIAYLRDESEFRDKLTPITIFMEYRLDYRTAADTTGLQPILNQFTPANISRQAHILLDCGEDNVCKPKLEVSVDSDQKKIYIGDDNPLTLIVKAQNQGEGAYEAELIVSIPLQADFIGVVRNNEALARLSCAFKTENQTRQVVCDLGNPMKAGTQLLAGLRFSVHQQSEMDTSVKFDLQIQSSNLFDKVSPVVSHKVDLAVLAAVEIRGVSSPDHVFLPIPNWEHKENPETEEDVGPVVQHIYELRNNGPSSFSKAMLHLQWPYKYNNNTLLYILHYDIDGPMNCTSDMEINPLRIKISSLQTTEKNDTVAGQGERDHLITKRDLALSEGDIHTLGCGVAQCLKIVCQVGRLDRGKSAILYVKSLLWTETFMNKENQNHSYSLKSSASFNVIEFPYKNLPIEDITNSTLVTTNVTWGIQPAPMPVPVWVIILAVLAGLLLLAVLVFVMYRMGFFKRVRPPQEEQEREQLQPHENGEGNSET
Sequence (P18564 22-788, chain 2 of 2): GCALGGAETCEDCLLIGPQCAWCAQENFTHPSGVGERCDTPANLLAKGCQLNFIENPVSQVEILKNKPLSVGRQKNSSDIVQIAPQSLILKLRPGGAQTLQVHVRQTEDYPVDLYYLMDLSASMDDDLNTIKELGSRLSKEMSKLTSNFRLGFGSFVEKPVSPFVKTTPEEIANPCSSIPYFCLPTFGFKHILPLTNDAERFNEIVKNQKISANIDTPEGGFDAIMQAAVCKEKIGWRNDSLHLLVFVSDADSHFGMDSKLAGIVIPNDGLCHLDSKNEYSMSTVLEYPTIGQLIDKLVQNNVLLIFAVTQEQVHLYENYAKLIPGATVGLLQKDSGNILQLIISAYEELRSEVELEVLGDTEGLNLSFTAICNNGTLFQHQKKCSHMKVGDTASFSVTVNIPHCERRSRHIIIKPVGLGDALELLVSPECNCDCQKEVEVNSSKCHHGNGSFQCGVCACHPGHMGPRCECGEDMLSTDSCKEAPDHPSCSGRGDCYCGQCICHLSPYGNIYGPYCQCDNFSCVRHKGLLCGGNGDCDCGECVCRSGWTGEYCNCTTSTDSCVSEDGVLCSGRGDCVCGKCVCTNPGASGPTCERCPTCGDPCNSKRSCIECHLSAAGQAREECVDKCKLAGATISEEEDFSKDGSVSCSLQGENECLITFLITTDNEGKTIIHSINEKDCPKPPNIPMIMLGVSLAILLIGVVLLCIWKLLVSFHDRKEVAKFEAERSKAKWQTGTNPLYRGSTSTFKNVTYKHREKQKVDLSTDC
ASSAY_NOTES: cell-based or functional assay
ENDPOINT_LABEL: Assay 1 % Inhibition of adhesion (%)
Entry rule: numbers only, all in %.

Query :: Looking for the measured Assay 1 % Inhibition of adhesion of sc 188 (antibody, V domains shown, kappa light chain) VH: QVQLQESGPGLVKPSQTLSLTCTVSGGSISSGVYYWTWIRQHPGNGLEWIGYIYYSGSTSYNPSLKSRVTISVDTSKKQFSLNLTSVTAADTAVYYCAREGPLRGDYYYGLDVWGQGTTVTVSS VL: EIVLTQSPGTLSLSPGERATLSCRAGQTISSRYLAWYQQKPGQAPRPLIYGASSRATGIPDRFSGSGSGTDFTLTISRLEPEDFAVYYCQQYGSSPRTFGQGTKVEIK , can you help?
Result :: 99
